Task for the reader: assign each of the following compounds its reported z-score.
experiment: PSAC antagonists in infected red cells, primary screen, cell-based, P. falciparum Indochina, OD700, 18 h (AID 1157); details: P. falciparum Indochina infected erythrocytes, osmotic lysis OD700, 18 h; higher = more signal, called active from +8 up or from −8 down
Calls of active or inactive are those of the source.

Which value of z-score has been reported for "C=C(/C(=C/C[C@@H](OC(C)=O)c1ccc(OCCO)cc1)c1cc(C(=O)OC)ccc1OC)C(C)C" in the records?
0.774 (inactive)

Given the compound "CCCNC(=O)[C@@]1(Sc2ccc(C)cc2)CC(=O)N(C(C)C)[C@@H]1c1ccc(CO)cc1I" , what is its reported z-score?
0.108 (inactive)

z-score lookup needed for "O=c1cccc(-c2ccco2)o1" , thanks.
0.143 (inactive)

###

molecular target: Streptavidin (Streptomyces avidinii) (UniProt P22629); test: streptavidin binders on small-molecule microarray, primary screen, artefact control for SMM compound annotation, biophysical, 635/667 nm fluorescence (AID 1147); details: streptavidin binding, higher = more signal;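 also: signal reflects streptavidin binding to arrayed compounds as a control protein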
Sequence (P22629 whole entry, looked up): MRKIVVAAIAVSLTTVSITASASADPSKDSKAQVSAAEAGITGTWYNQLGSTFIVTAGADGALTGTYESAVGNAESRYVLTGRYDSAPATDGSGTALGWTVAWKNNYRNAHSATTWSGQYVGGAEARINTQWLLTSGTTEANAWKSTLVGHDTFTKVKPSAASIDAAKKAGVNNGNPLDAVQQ
For each of the compounds below, state its composite z-score.
Answer field: number only, no words.

Value lookup for composite z-score; key = COc1cc(NN2C(C(O)C3CCCCC3)C=CC3C(=O)N(c4ccccc4)C(=O)C32)cc(OC)c1OC (configuration not stated)
0.775

Which composite z-score reading was recorded for the compound "CN1C(=O)[C@@]2(Cc3ccccc3)N=C(c3ccc(OCCCO)cc3)O[C@H]2c2ccccc21" ?
0.0831

Item "COC(=O)[C@@]1(Cc2ccc(OC)cc2)[C@H]2c3cc(C(=O)N4CCCC4)n(Cc4cc(C)n(C)n4)c3C[C@H]2CN1C(=O)c1ccccc1" has what recorded composite z-score?
1.92

Suppose we examine the compound CN1C(=O)C2C(C1=O)C1C=C(CCCO)C2C(c2cccs2)N1Cc1cc2c(cc1Br)OCO2 (configuration not stated) ; what composite z-score value has been reported?
2.27

Entry under review: "CO[C@H]1O[C@H](CO)[C@@H](OC(=O)Nc2cccc(F)c2)[C@H](OC(=O)Nc2ccccc2-c2ccccc2)[C@H]1OC(=O)Nc1ccccc1-c1ccccc1" . Reported composite z-score?
0.379

Report composite z-score for CC(C)C[C@@H]1NC(=O)CNC(=O)[C@@]23C(=O)N[C@@H](Cc4ccccc4)C2[C@H](C)[C@@]2(C)O[C@H]2C3/C=C/C/C=C\CNC1=O (some centres not stated) please.
-0.0691

Param item = O=C1C2C=CC(C(O)c3ccco3)N(Nc3ccccc3)C2C(=O)N1c1ccccc1 (configuration not stated) ; retrieve measured composite z-score.
-0.511

Bench note: what composite z-score did O=C1OCCC=C[C@H]2OC34C=CCN(c5ccc(Cl)cc5)C(=O)[C@H]3N(CCCCCCO)C(=O)[C@@H]4C12 (some centres not stated) show?
-0.985

Need composite z-score of "[N-]=[N+]=Nc1ccccc1C[C@@]1(C(=O)O)N=C(c2ccc(OCCCO)cc2)O[C@@H]1c1ccccc1N=[N+]=[N-]" , thanks.
1.96

Form field: reported composite z-score of "CC(C)(C)OC(=O)CC[C@]1(C(=O)N2CCCCC2)COC(c2ccc(OCCCO)cc2)=N1"
1.36

Which value of composite z-score has been reported for "C[C@@]12COC[C@]13C=C(Br)[C@H](C2)[C@@]1(CO1)C3=O" in the records?
-0.875

// query composite z-score value for entry "CCCNC(=O)[C@@]1(Sc2ccc(C)cc2)CC(=O)N(C(C)C)[C@@H]1c1ccc(CO)cc1I"
-1

For the compound shown here, O=C1NC(=O)C2C1C=CC(C(O)c1ccccn1)N2Nc1ccc(Cl)cc1Cl (configuration not stated) , give the reported composite z-score.
1.16

Query (compound): CC(C)[C@H]1NC(=O)[C@@]23C(=O)N[C@@H](Cc4ccccc4)C2[C@H](C)[C@@]2(C)O[C@H]2C3/C=C/CCC/C=C/CNC(=O)[C@H](Cc2ccccc2)NC1=O (some centres not stated) ; field requested: composite z-score
-0.77

Given "O=c1cccc(-c2ccc(F)cc2)o1" , state its recorded composite z-score.
0.386

Could you share which composite z-score value was measured for "[N-]=[N+]=NCc1ccccc1C[C@@]1(C(=O)N2CCCCC2)N=C(c2ccc(OCCCO)cc2)O[C@@H]1c1ccccc1CN=[N+]=[N-]" ?
0.721

Any idea what composite z-score was measured for CC=CC(O)C1C=CC2C(=O)NC(=O)C2N1Nc1ccccn1 (configuration not stated) ?
0.149
